# TARGET UNDER TEST: T1, huEpoR protein (soluble human erythropoietin receptor) (human, UniProt P19235 25-250, limits assumed)
# T1 construct: also called soluble huEpoR; biotinylated huEpoR
# T1 sequence (looked up): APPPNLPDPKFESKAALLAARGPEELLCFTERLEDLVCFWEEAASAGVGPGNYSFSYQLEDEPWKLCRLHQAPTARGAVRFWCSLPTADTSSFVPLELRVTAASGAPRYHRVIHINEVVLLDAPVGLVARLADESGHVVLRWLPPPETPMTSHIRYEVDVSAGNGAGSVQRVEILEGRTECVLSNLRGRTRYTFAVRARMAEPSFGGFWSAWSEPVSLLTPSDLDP
# TEST SUMMARY: SPR, Biacore T100; scFv-Fc captured on anti-human IgG Fc CM5 chip, EpoR as analyte; 1:1 fit;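 also: measured at 25 °C in HBS-EP buffer with 0.1 mg/ml BSA, flowed at 50 µl/min, 1 min association then dissociation (10 min human, 5 min cyno EpoR)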
MEASURED ATTRIBUTE: kon (M⁻¹ s⁻¹)

>>> measured_number("Mxb 319 (clone 319 scFv-Fc protein) (Fc fusion, Tested as scFv-Fc (maxibody) with an Fc derived from human IgG1) VH: QVQLVQSGAEIKKPGASVKVSCKTFGSPFSTNDIHWVRQAPGQGLEWMGIIDTSGAMTRYAQKFQGRVTVTRETSTSTVYMELSSLKSEDTAVYYCAREGCTNGVCYDNGFDIWGQGTLVTVSS VL: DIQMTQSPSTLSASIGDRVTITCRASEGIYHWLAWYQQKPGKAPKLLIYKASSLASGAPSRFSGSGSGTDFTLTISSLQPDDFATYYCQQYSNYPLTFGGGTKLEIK")
158000
>>> measured_number("Mxb 34 (clone 34 scFv-Fc protein) (Fc fusion, Tested as scFv-Fc (maxibody) with an Fc derived from human IgG1) VH: QVQLQQSGAEVKKPGASVKVSCKASGYTFSGYYMHWVRQAPGQGLEWMGWINPNSGSTNYAQKFLGRVTMTRDTSISTAYMELSSLRSDDTAVYYCARGHSGDYFDYWGQGTLVTVSA VL: EIVLTQSPSSLSASVGDRVTITCRASQSVSSWLAWYQQRPGQAPKLLIYAARLRGGGPSRFSGSGSGTEFTLTISSLQPEDFATYFCQQSYSTPISFGGGTKLEIK")
536000
>>> measured_number("Mxb 15 (clone 15 scFv-Fc protein) (Fc fusion, Tested as scFv-Fc (maxibody) with an Fc derived from human IgG1) VH: QVQLQESGPGLVRPSGTLSLTCAVSGGSIGSSNWWSWVRQAPGKGLEWIGEISQSGSTNYNPSLKGRVTISLDRSRNQLSLKLSSVTAADTAVYYCARQLRSIDAFDIWGPGTTVTVSA VL: SYVLTQPPSVSVSPGLTATITCSGDKLGDKYASWYQQKPGQSPVLVIYQDRKRPSGIPERFSGSNSGNTATLTISGTQAVDEADYYCQAWDSDTSYVFGTGTQLTVL")
61000
>>> measured_number("Mxb 330 (clone 330 scFv-Fc protein) (Fc fusion, Tested as scFv-Fc (maxibody) with an Fc derived from human IgG1) VH: EVQLVESGGGLVQPGGSLRLSCAVSGFTFSKYWMTWVRQAPGKGLEWVANIKPDGSEKYYVESVKGRFTISRDNAKNSVYLQMNSVRAEDTAVYYCARVSRGGSFSDWGQGTLVTVSS VL: QSALTQPPSASGSPGQSVTISCTGTSSDVGAYNYVSWYQQHPGKAPKLMIYEVARRPSGVPDRFSGSKSGNTASLTVSGLQAEDEADYYCSSYAGSNNFAVFGRGTKLTVL")
822000
